- Tested on: WPMY-1 cells
- METHOD_NOTES: Cytotoxicity / antiproliferative MTT assay
- Format: cell-based
- RECORDED_CONDITIONS: read-out: Cytotoxic IC50
- Experimental: Cell viability was analyzed by 3-(4,5)-[…] (MTT) assay as previously described. In brief, cells were seeded in a 96-well plate at a density of 5 × 10^3 per well overnight and treated with compounds for demand time. OD570 values were detected using a Hybrid Multi-Mode Reader (Synergy H1, BioTek, Santa Clara, CA, USA). The experiment was independently repeated three times.
OBSERVABLE: IC50

Query CC=C(C)C(OC(C)=O)C(C)C1=CC(=O)C2=C(OC3(C)CCC4OC(C(C)(C)O)CCC4(C)C3C2)C1=O (stereo not shown) yields IC50 of 5.53 µM

====

- Tested on: Hela cells
- METHOD_NOTES: Cytotoxicity / antiproliferative MTT assay
- Assay type: cell-based
- RECORDED_CONDITIONS: Homo sapiens, read-out: Cytotoxic IC50
OBSERVABLE: IC50
The number alone won't do; follow it with the unit.

Query CC=C(C)C(OC(C)=O)C(C)C1=CC(=O)C2=C(OC3(C)CCC4OC(C(C)(C)O)CCC4(C)C3C2)C1=O (stereo not shown) yields IC50 of 11.5 µM

====

- Tested on: HepG2, A549, Hela, WPMY-1, MC3T3-E1 cells
- METHOD_NOTES: Antiproliferative MTT assay, summary over other cells
- Assay type: cell-based
- RECORDED_CONDITIONS: range over HepG2, A549, Hela, read-out: IC50 values against other cells
pIC50: −log10 of the molar value.
OBSERVABLE: pIC50

Query CC=C(C)C(OC(C)=O)C(C)C1=CC(=O)C2=C(OC3(C)CCC4OC(C(C)(C)O)CCC4(C)C3C2)C1=O (stereo not shown) [Compound 4, stemphone C] yields pIC50 of 4.93 to 5.44

====

- Tested on: HepG2 cells
- METHOD_NOTES: Cytotoxicity / antiproliferative MTT assay
- Assay type: cell-based
- RECORDED_CONDITIONS: HepG2; read-out: Cytotoxic IC50
OBSERVABLE: IC50 (µM)
Unit µM implied. Number only.

Query CC=C(C)C(OC(C)=O)C(C)C1=CC(=O)C2=C(OC3(C)CCC4OC(C(C)(C)O)CCC4(C)C3C2)C1=O (stereo not shown) [Compound 4, stemphone C] yields IC50 of 7.11

====

- METHOD_NOTES: Cytotoxicity / antiproliferative MTT assay
- Assay type: cell-based
- RECORDED_CONDITIONS: human, WPMY-1 cells, read-out: Cytotoxic IC50
OBSERVABLE: pIC50
Please note pIC50 is a logarithmic value: minus log10 of concentration in mol/L. Answer with that number alone.

Query CC(=O)O[C@@]12CO[C@@H]1C[C@H](O)[C@@]1(C)C(=O)[C@H](O)C3=C(C)[C@@H](OC(=O)[C@H](O)[C@@H](NC(=O)OC(C)(C)C)c4ccccc4)C[C@@](O)([C@@H](OC(=O)c4ccccc4)[C@H]21)C3(C)C [Docetaxel, reference compound] yields pIC50 of 6.29
